Measured values drawn from patent US5206135A for this set.

Target: acetolactate synthase (Escherichia coli, UniProt P0DP90)
Sequence (P0DP90 whole entry): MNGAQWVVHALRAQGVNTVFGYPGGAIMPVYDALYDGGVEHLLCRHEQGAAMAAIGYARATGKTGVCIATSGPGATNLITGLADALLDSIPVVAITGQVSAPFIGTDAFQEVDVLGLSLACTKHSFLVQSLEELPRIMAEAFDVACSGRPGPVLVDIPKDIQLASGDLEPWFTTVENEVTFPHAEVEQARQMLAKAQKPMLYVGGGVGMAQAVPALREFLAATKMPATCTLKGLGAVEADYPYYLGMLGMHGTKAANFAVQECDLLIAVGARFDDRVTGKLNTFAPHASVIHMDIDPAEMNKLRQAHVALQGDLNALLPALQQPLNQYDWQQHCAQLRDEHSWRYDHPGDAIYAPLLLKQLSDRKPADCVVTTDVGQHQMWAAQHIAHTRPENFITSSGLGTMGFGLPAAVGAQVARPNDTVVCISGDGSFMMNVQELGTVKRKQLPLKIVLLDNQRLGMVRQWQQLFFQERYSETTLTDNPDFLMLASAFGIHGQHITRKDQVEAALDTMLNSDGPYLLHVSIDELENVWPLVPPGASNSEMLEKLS
Sequence (P0ADG1 whole entry partner): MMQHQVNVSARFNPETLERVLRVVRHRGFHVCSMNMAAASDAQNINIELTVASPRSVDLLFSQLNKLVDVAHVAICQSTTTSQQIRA
Experiment: Sensitivity of the oxygenase activity of acetolactate synthase to herbicides (oxygen-sensitive electrode)
Type: biochemical
Conditions: 100 μM pyruvate as substrate; rate of oxygen consumption; pH 8; read-out: Concentration that Gives 50% Inhibition
pIC50: −log10 of the molar value.
OBSERVABLE: pIC50

[[record]]
molecule = "COC(=O)c1ccccc1S(=O)(=O)NC(=O)Nc1nc(C)cc(C)n1 [sulfometuron methyl]"
measured_target = "acetolactate synthase (Escherichia coli, UniProt P0DP90)"
observable = "pIC50"
obs_value = 6.00

[[record]]
molecule = "COc1nc(C)nc(NC(=O)NS(=O)(=O)c2ccccc2Cl)n1 [chlorsulfuron]"
measured_target = "acetolactate synthase (Escherichia coli, UniProt P0DP90)"
observable = "pIC50"
obs_value = 6.30

